System: Xylose reductase (Candida tenuis)
Test: Ratio of catalytic constant (kcat)/Kinetic constant(Km)
Outcome label depends on k cat/Km relative to 20000 M⁻¹ s⁻¹: at/above gives YES, below gives NO.

Solved entries (count: 4):
# Compound, Subject Of Test, Class Label
measured = [
    ("C[C@H]1OC(O)[C@H](O)[C@H]1O (stereo not given in full)", "Xylose reductase (Candida tenuis)", "YES"),
    ("CC[C@H]1OC(O)[C@H](O)[C@H]1O (stereo not given in full)", "Xylose reductase (Candida tenuis)", "YES"),
    ("[N-]=[N+]=NC[C@H]1OC(O)[C@H](O)[C@H]1O (stereo not given in full)", "Xylose reductase (Candida tenuis)", "NO"),
    ("OC1OC(C(F)CF)C(O)C1O (stereo not given)", "Xylose reductase (Candida tenuis)", "NO"),
]

Decide: is the reported value of k cat/Km for OC1O[C@H](CF)[C@H](O)[C@H]1O (stereo not given in full) equal to or greater than 20000 M⁻¹ s⁻¹?
YES
